Target: human Serotonin transporter (Homo sapiens, UniProt P31645)
Construct: expressed in transfected cells; cell membranes
Sequence (P31645 whole entry): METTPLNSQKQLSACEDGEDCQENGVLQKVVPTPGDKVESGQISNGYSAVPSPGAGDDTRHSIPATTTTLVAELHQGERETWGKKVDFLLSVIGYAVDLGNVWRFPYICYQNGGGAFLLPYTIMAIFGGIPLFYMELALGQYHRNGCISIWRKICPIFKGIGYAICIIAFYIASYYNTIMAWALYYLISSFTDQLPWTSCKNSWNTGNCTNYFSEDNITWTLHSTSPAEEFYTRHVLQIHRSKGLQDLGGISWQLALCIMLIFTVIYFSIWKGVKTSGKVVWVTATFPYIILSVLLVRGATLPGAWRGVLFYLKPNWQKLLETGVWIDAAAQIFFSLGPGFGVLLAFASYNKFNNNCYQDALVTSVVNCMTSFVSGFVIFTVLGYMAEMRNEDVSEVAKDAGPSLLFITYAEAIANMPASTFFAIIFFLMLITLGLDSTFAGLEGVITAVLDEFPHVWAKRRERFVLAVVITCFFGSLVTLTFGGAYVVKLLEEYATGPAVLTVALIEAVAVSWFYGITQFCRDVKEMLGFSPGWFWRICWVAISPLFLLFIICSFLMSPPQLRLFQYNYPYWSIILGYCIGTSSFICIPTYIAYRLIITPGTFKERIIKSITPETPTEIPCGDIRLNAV
Assay: [3H]paroxetine binding to serotonin transporter
Conditions: read-out: Percent inhibition (10^−7 M)
Experimental: After incubation for 60 min at 25° C., the reaction was terminated by rapid filtration through GF/B glass fiber filter and rinsed with ice-cold incubation buffer. The retained radioactivity on filter was measured by a liquid scintillation counter. Nonspecific binding was defined with 10 μM imipramine and subtracted from total binding to determine specific binding. Inhibition activities of tested compounds were determined as a percent inhibition of the specific binding.
Structures can show the parent of a compound that is named as a salt.
readout.kind: inhibition at 0.1 µM (%)

- Cc1cc(C)c(N2CCNCC2COc2ccc(Cl)cc2)c(C)c1 (centres unmarked) [Example 7, hydrochloride]: 26
- CC(C)c1cccc(N2CCNCC2COc2ccc(Cl)cc2)c1 (centres unmarked) [Example 3, hydrochloride]: 13
- CCCc1ccc(N2CCNCC2COc2ccc(Cl)cc2)cc1 (centres unmarked) [Example 2, hydrochloride]: 31
- CC(C)c1ccc(N2CCNCC2COc2ccc(Cl)cc2)cc1 (centres unmarked) [Example 1, hydrochloride]: 17
- Clc1ccc(OCC2CNCCN2c2ccc3c(c2)CCC3)cc1 (centres unmarked) [Example 10, hydrochloride]: 44
